# System: BDF1 mice, s.c. Lewis lung carcinoma, T/C %
# ASSAY PROTOCOL: NCI In Vivo Anticancer Drug Screen. Data for tumor model Lewis Lung Carcinoma (subcutaneous) in B6D2F1 (BDF1) mice
# RUN CONDITIONS: endpoint: mean tumor weight; dose: 31.3 mg/kg/injection; schedule: Q01DX011 (ip); vehicle: saline; higher = larger tumour
# Procedure: The antitumor activity of compounds was measured in mice bearing transplantable tumors. Survival or tumor size were measured and the results are expressed as the measurement made in the treated group (T) divided by the measurement made in the vehicle treated control group (C). The tumor model used in this assay is Lewis Lung Carcinoma (subcutaneous) in B6D2F1 (BDF1) mice
Results filed as inconclusive are left out.
READOUT: T/C

The cases that follow already have their T/C on record.
1) Nc1ccc(OC(=O)Oc2ccc(N)cc2)cc1 :: 60 % of control
2) CCC(c1ccc(O)cc1)C(CC)c1ccc(OC)cc1 (stereo not given) :: 23 % of control
3) NC(=O)NC1NC(=O)NC1=O (stereo not given) :: 97 % of control
4) CN1CC(=O)N=C1N :: 116 % of control

Now turn to the next compound.
(Q) Please indicate T/C recorded for C=C[C@]1(C)C=C2CC[C@@H]3[C@](C)(CCC[C@@]3(C)C(=O)O)[C@H]2CC1
(A) 43 % of control
